Data provenance: the METLIN SMRT retention time set (Domingo-Almenara et al. 2019)

Known RP-LC retention time of a selection of compounds
# Procedure text: gradient 5% acetonitrile 3 min, to 50% in 2 min, to 85% in 15 min, held 3 min, 100 µL/min
# Stated conditions: column: Zorbax Extend-C18 2.1 x 50 mm; eluents: water / acetonitrile, 0.1% formic acid
Respond numerically; units are s and should not be typed.

compound="CCOC(=O)C1CCCN(c2ccc(-n3nc(C)cc3C)nn2)C1 (stereo not drawn)" measure_name="RP-LC retention time" value_measured=680
compound="COc1ccc2cc(C(=O)N3CCC(CC(=O)NCC4CCCO4)CC3)[nH]c2c1 (stereo not drawn)" measure_name="RP-LC retention time" value_measured=681

Let us move to another entry and its RP-LC retention time.
INPUT: Value lookup for RP-LC retention time; key = CCCNc1cc(N2CCC(CCC(=O)NCc3ccccc3Cl)CC2)ncn1
OUTPUT: 718

* * *

Catalogue of RP-LC retention time values
# Procedure text: gradient 5% acetonitrile 3 min, to 50% in 2 min, to 85% in 15 min, held 3 min, 100 µL/min
# Stated conditions: column: Zorbax Extend-C18 2.1 x 50 mm; eluents: water / acetonitrile, 0.1% formic acid
Supply the numeric figure in s, leaving out any unit text.

Please review the following examples before continuing.
compound=CC(C)CNC(=O)c1sc2ncccc2c1-n1cccc1 unit_descriptor=s value_measured=971
compound=COC(=O)c1cc2c(=O)n(-c3ccccc3Cl)ccc2nc1C unit_descriptor=s value_measured=830

INPUT: GET /values?readout=RP-LC retention time&item= CCC(C(=O)NCCOc1ccc2nnc(-c3ccc(OC)cc3)n2n1)c1ccccc1 (centres undefined)
OUTPUT: 735

INPUT: Fill in the blank: the reported RP-LC retention time of CCCNC(=O)CN1C(=O)C2CCCCN2c2ccc(S(=O)(=O)N3CCCC3)cc21 (centres undefined) is ____.
OUTPUT: 800

INPUT: Form field: reported RP-LC retention time of Cc1ccc(NC(=O)C2CCCN(S(=O)(=O)c3cn(C(C)C)cn3)C2)cc1F (centres undefined)
OUTPUT: 847

INPUT: Please report the recorded RP-LC retention time for COc1ccc(S(=O)(=O)Nc2cc(-c3cn4ccc(C)cc4n3)ccc2C)cc1C .
OUTPUT: 687

INPUT: Any idea what RP-LC retention time was measured for CC(NC(=O)C1CCN(c2cnn(Cc3ccccc3)c(=O)c2)CC1)c1ccccc1 (centres undefined) ?
OUTPUT: 803

INPUT: GET /values?readout=RP-LC retention time&item= O=C(NCC1CCCO1)C1CCCN(c2ccnc(-c3ccccc3)n2)C1 (centres undefined)
OUTPUT: 571

INPUT: Recorded RP-LC retention time of OCC1CN(c2ncccn2)CC12CCN(Cc1ccc3cc[nH]c3c1)CC2 (centres undefined) , please.
OUTPUT: 584

INPUT: Item under review: Cc1ccc(-c2nc(CCN(C)C(=O)NCc3ccccc3)no2)cc1 . Reported RP-LC retention time?
OUTPUT: 905

* * *

# Procedure text: gradient 5% acetonitrile 3 min, to 50% in 2 min, to 85% in 15 min, held 3 min, 100 µL/min
# Stated conditions: column: Zorbax Extend-C18 2.1 x 50 mm; eluents: water / acetonitrile, 0.1% formic acid
Examples of molecules with documented RP-LC retention time follow.
Output spec: scalar in s, unitless text.

molecule=CC(C)CN(Cc1cccnc1)C1CN(S(=O)(=O)Cc2ccccc2)C1 measure_name="RP-LC retention time" value_measured=719
molecule=O=C(OCc1ccncc1)c1cn(-c2ccc(F)cc2)c(=O)c2ccccc12 measure_name="RP-LC retention time" value_measured=703
molecule="CCN1CC(c2nc(-c3ccccc3)no2)C2(CCCC2)C1 (stereo unspecified)" measure_name="RP-LC retention time" value_measured=709
molecule=CCN1CCn2cc(S(=O)(=O)Nc3ccc(C(=O)OC)cc3)cc2C1=O measure_name="RP-LC retention time" value_measured=692
molecule=Cc1ccn2cc(-c3ccc(NC(=O)c4ccc(Cl)cc4Cl)cc3)nc2n1 measure_name="RP-LC retention time" value_measured=695

Consider the record given below.
INPUT: Reported RP-LC retention time, molecule Cc1cc(Cl)ccc1OCC(=O)Nc1ccc2c(c1)Sc1ncccc1C(=O)N2C : ____
OUTPUT: 911

* * *

Readings of RP-LC retention time for the listed compounds
# Procedure text: gradient 5% acetonitrile 3 min, to 50% in 2 min, to 85% in 15 min, held 3 min, 100 µL/min
# Stated conditions: column: Zorbax Extend-C18 2.1 x 50 mm; eluents: water / acetonitrile, 0.1% formic acid
Express your answer as a number followed by its unit.

Previously resolved entries follow.
compound="Cc1ccc(NC(=O)NC2CCN(c3ccc(F)cc3)C2=O)c(C)c1 (stereo not drawn)" measure_name="RP-LC retention time" value_measured="778 s"
compound="CC(NC(=O)C1=CCN(Cc2cccc(F)c2)CC1)c1ccccc1 (stereo not drawn)" measure_name="RP-LC retention time" value_measured="662 s"

INPUT: Using the record for Cc1ccc(S(=O)(=O)N2CC(=O)N(c3cccc(F)c3)C(C)(C(=O)NCc3ccccc3)C2)cc1 (stereo not drawn) , report its RP-LC retention time.
OUTPUT: 948 s

* * *

# Procedure text: gradient 5% acetonitrile 3 min, to 50% in 2 min, to 85% in 15 min, held 3 min, 100 µL/min
# Stated conditions: column: Zorbax Extend-C18 2.1 x 50 mm; eluents: water / acetonitrile, 0.1% formic acid
Recorded RP-LC retention time for the following molecules
Report the figure in s without appending any unit label.

molecule=Cn1nc(-c2nc(-c3ccccc3)no2)c2c1CCN(C(=O)NC(C)(C)C)C2 value_measured=780
molecule=COC[C@@H]1CN(S(=O)(=O)Cc2ccccc2)C[C@H]1c1nc(C)no1 value_measured=836

INPUT: Endpoint output: RP-LC retention time of O=C(NCC1CCCO1)c1coc(NC(=O)C2CC2)n1 (stereo not given) . Value?
OUTPUT: 571

INPUT: Reported RP-LC retention time for Cc1ccc(CNc2cc(-n3cccn3)ncn2)cc1 : what is it?
OUTPUT: 898

INPUT: What value of RP-LC retention time has been reported for the following molecule? CCN1C(=O)c2cc(C(=O)Nc3ccc(C)cc3)nn2CC1(C)C(=O)NC1CCCC1 (stereo not given)
OUTPUT: 807

INPUT: Look up RP-LC retention time: CCc1nc2sc(C(C)C)nn2c1S(=O)(=O)N1CCSCC1
OUTPUT: 962

INPUT: Recorded RP-LC retention time of O=C(c1ccc(Cl)cc1)N1CCN(c2nc(CN3CCCCC3)cs2)CC1 , please.
OUTPUT: 808

INPUT: Return reported RP-LC retention time; argument: CCc1ccc(C(O)CN2CCN(c3ncccn3)CC2)cc1 (stereo not given)
OUTPUT: 621

INPUT: Give the measured RP-LC retention time of COc1ccc2c(c1)C1(CCN(C(=O)NCCc3ccccc3)C1)C(=O)N2C (stereo not given) .
OUTPUT: 757

INPUT: What does the record list as RP-LC retention time for Cn1cccc1C(=O)C(=O)Nc1ccc(C#N)cc1 ?
OUTPUT: 872

INPUT: Look up RP-LC retention time for this molecule: CCCOc1ccc(Nc2nc(C(=O)OCC)nc3ccccc23)cc1
OUTPUT: 941

INPUT: Fill in: RP-LC retention time of CC(=O)N1CCc2cc(CNS(=O)(=O)c3ccc(Cl)cc3)ccc21 is ___
OUTPUT: 811

INPUT: RP-LC retention time for Cc1c(Cl)cccc1NC(=O)C1CCN(c2c(C(=O)N3CCC(C)CC3)cnc3snc(C)c23)CC1 ?
OUTPUT: 1040

INPUT: Fill in: RP-LC retention time of CCc1nc(-c2c(C)cc(C)nc2NC(=O)c2cccc(Br)c2)no1 is ___
OUTPUT: 898

* * *

// reported RP-LC retention time for each item listed
# Procedure text: gradient 5% acetonitrile 3 min, to 50% in 2 min, to 85% in 15 min, held 3 min, 100 µL/min
# Stated conditions: column: Zorbax Extend-C18 2.1 x 50 mm; eluents: water / acetonitrile, 0.1% formic acid
Answer format: numeric, s implied, no suffix.

Recorded RP-LC retention time, per entry:
compound=CCN1CCCn2cc(S(=O)(=O)Nc3cc(OC)cc(OC)c3)cc2C1=O measure_name="RP-LC retention time" unit_descriptor=s value_measured=704
compound="COC(=O)c1ncn2c1C(=O)N(Cc1ccc(F)cc1Cl)C(C)(C(=O)NCc1ccccc1)C2 (stereo not given)" measure_name="RP-LC retention time" unit_descriptor=s value_measured=771
compound=Cc1n[nH]c(C)c1Sc1ccccc1[N+](=O)[O-] measure_name="RP-LC retention time" unit_descriptor=s value_measured=739
compound=COc1ccc(Cc2nc(-c3cccc(-c4ccn[nH]4)c3)no2)cc1 measure_name="RP-LC retention time" unit_descriptor=s value_measured=911

Kindly review the next compound as well.
INPUT: Find the recorded RP-LC retention time belonging to COc1ccc(NC(=O)Cn2c(C(C)C)nc3c(c2=O)CCN(Cc2ccccc2)C3)c(OC)c1 and report it.
OUTPUT: 703
